B1: Alpha-lactalbumin, P00712 (parent)
chain: MMSFVSLLLVGILFHATQAEQLTKCEVFQKLKDLKDYGGVSLPEWVCTAFHTSGYDTQAIVQNNDSTEYGLFQINNKIWCKDDQNPHSRNICNISCDKFLDDDLTDDIVCAKKILDKVGINYWLAHKALCSEKLDQWLCEKL

Variants of: B1
Settings: Capra hircus; pH 7; 25 °C; GdnHCl; CD; sodium cacodylate 50 mM; NaCl 50 mM; reversible: yes; structure 1HFY; whole UniProt chain shown
This listing pairs variants with measured unfolding free energy.
Answer in kcal/mol, number only, no unit symbol.

Solved cases below.
MUTANT_DESIGNATION: A49T
UNIT_INFO: kcal/mol
unfolding free energy: 7.4
//
MUTANT_DESIGNATION: T52I
UNIT_INFO: kcal/mol
unfolding free energy: 4.6
//
MUTANT_DESIGNATION: A49I
UNIT_INFO: kcal/mol
unfolding free energy: 8.1
//
MUTANT_DESIGNATION: A49I T52I
UNIT_INFO: kcal/mol
unfolding free energy: 6.1

For this variant ( T48I ), measured unfolding free energy is 10.1
